Task for the reader: assign each of the following compounds its reported TGI.
Test system: HCC-2998 colon
Test: NCI tumour cell line growth inhibition, 48 h

Below, 5 compounds whose answers are already recorded.
>>> result("COc1ccc(CC2c3cc(OC)c(OC)cc3CC[N+]2(C)C)cc1OC (configuration not stated)")
"> 100 µM"
>>> result("COC(=O)C1(C(=O)OC)C/C(C)=C(/C)SCCCS1")
"> 100 µM"
>>> result("Nc1nc(NCC2(CO)CC2)cc(=O)[nH]1")
"> 100 µM"
>>> result("COC(=O)CC1C=CC(C)(OC)OO1 (configuration not stated)")
"> 100 µM"
>>> result("O=[N+]([O-])c1ccc(N2N=C(c3ccc(NCc4nc5ccccc5[nH]4)cc3)CC2c2ccco2)cc1 (configuration not stated)")
"94.1 µM"

Quick request: TGI for each listed item, please.
1. O=S1(=O)Cc2ccc3c4c2-c2c(ccc5ccc(c-4c25)CS(=O)(=O)C3)C1
2. COC(=O)C1=C(C(=O)Nc2cccnc2Cl)N(c2ccc(OC)cc2[N+](=O)[O-])C(c2ccc(C)cc2)=CC1c1ccc(OC)cc1OC (configuration not stated)
3. COc1ccc2c(c1)nc1n2C(c2c(Cl)cccc2Cl)SC1 (configuration not stated)
4. CCOC(=O)c1nc2ccc(C(F)(F)F)cc2[nH]c1=O
5. COC(=O)[C@@H](C)C[C@H](Cc1ccccc1)NC(=O)c1csc([C@@H](C[C@H](C(C)C)N(C)C(=O)[C@@H](NC(=O)[C@H]2CCCCN2C)C2CCCCC2)OC(C)=O)n1
6. COc1cccc2cc(C(=O)O)c(=O)oc12
7. COc1ccc2c(c1)C(=O)OCCC2

-- reply
["> 100 µM", "27.8 µM", "> 86.8 µM", "> 100 µM", "> 25 µM", "> 100 µM", "> 100 µM"]

Quick request: TGI for each listed item, please.
1. O=C(N[C@@H](c1ccccc1)[C@@H](O)C(=O)OCc1ccc([N+](=O)[O-])cc1)c1ccccc1
2. O=C(Oc1cccnc1)c1cc2cc(CCl)ccc2oc1=O
3. O=c1cc(CO)oc(C(O)c2ccccc2)c1O (configuration not stated)

-- reply
> 100 µM
> 100 µM
> 100 µM

Quick request: TGI for each listed item, please.
1. CN(CCO)c1ccc(N2Cc3ccccc3OC3=C2C(=O)c2c(O)ccc(O)c2C3=O)cn1
2. O=S(=O)(Nc1ccc(F)cc1F)c1ccc(-c2cnc(C3CC3)o2)cc1
3. Cc1nc2ccc(NC(=S)Nc3ccccc3)cc2c(=O)n1-c1ccccc1
4. CN(C)c1ccc(/C=N\NC(=O)Nc2cccc3ccccc23)cc1

-- reply
0.608 µM
27.3 µM
> 100 µM
> 100 µM

Quick request: TGI for each listed item, please.
1. CN1C(=O)c2ccccc2OC12C=Cc1ccc(O)cc1O2 (configuration not stated)
2. COc1cc(C=O)c(-c2cc(OC)c(OC)cc2C=O)cc1OC
3. O=C1OCC2C1C1c3ccccc3C(O)c3ccccc3C21 (configuration not stated)

-- reply
50.8 µM
> 100 µM
> 100 µM
